- Tested on: breast cancer cell line MDA-MB-231
- PROTOCOL: Anti-proliferative activity in breast cancer cell line MDA-MB-231
- Format: cell-based
- ASSAY SETUP: Homo sapiens; MDA-MB-231 cell line
OBSERVED PROPERTY: GI50 (µM)

Solved entries:
COMPOUND	SYSTEM TESTED	GI50, µM
O=C(NO)c1ccc(-c2nc3ccccc3o2)cc1	breast cancer cell line MDA-MB-231	8.31
O=C(NO)c1cccc(-c2nc3ccccc3o2)c1 [Compound 17a]	breast cancer cell line MDA-MB-231	47.9
CCCn1c(-c2cccc(C(=O)NO)c2)nc2ccccc21 [Compound 14c]	breast cancer cell line MDA-MB-231	62.1
Cn1c(-c2ccc(C(=O)NO)cc2)nc2ccccc21	breast cancer cell line MDA-MB-231	40.3
O=C(NO)c1ccc(-c2nc3ccccc3s2)cc1	breast cancer cell line MDA-MB-231	3.86

a: O=C(NO)c1ccc(-c2nc3ccccc3[nH]2)cc1
b: CCCn1c(-c2ccc(C(=O)NO)cc2)nc2ccccc21
(Q) Which is greater in GI50, the first item a or the second item b ? Please identify the chosen entry by its label.
(A) b

1: CCn1c(-c2ccc(C(=O)NO)cc2)nc2ccccc21
2: CCCCn1c(-c2ccc(C(=O)NO)cc2)nc2ccccc21
(Q) Which is greater in GI50, the first item 1 or the second item 2 ? Please identify the chosen entry by its label.
(A) 2

a: O=C(NO)c1cccc(-c2nc3ccccc3s2)c1 [Compound 17b]
b: CCCCn1c(-c2cccc(C(=O)NO)c2)nc2ccccc21 [Compound 14d]
(Q) // compare measured GI50 between a and b ; output the lower one Please identify the chosen entry by its label.
(A) a
